Values compiled from PubChem BioAssay AID1508600.

# assay comment: Components of the Cytosolic LPS Sensing Pathway: Gene Identification via Genome-wide siRNA Screen;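 further: robust z of the log signal after scaling to non-targeting control siRNA wells of the plate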
# recorded conditions: RAW264.7 macrophages, IL-1a HTRF, actives lie on both sides, screened at 100 nM (by protocol), cells primed 5 h with Pam3CSK4 first
Hit rate of the full screen: of about 53,000 sequences, about 3,700 (7%) were called active. The full list was thinned out, with actives kept by preference.
quantity kind: z-score

Some sequences with known z-score results, for comparison:
sequence	quantity kind	measured value
GCUCGAUGUGAACUGCUAGTT against Ankrd9	z-score	2.12 (active)
CCCACCACAAGCUAAUACATT against Ubac1	z-score	-0.0826 (inactive)
CGGUGAAGACUAUCAUGGUTT against Tln1	z-score	-0.791 (inactive)
CUCCUCAGUCAACAAGAACTT against Hoxc11	z-score	0.176 (inactive)
GCUGGACACGGAAGGUAUATT against Igsf8	z-score	-0.595 (inactive)
GGAAAGAAUGAGGAUGUGGTT against Pitx2	z-score	-2.07 (active)
GGGCUCCUUCCUUGAAAAGTT against Dclre1c	z-score	0.365 (inactive)
GGACUCGUUCCACUAUCAUTT against Naa20	z-score	0.33 (inactive)

Could you tell me which z-score is on file for CGGAGAGGAUUUCAUCGAATT against Azgp1 ? 0.0877 (inactive)

Also check GGCUAGGUAAUCACUGGGUTT against Fate1 0.987 (inactive)

Also check GGUUAGAGAUUGUUCUGUUTT against Olfr267 2.02 (active)

Also check GCCUAAACUACCCUUAUAGTT against Ocln 3.4 (active)

Also check GGGUUUCACCCAAAGCCUUTT against Zfp354c -1.41 (inactive)
